For each entry below, report its kon value.
# subject.of.test: T1, DR3 (CRD1)-Fc (human)
# T1 construct: Amino acids 25-71 of DR3 fused to the Fc domain of human IgG4; purified to exclude oligomers (mainly dimeric)
# test.method.notes: SPR Biacore T200, DR3(CRD1)-Fc captured by anti-human IgG, Fab as analyte, 25 C, 1:1 model, mean of 3 surface densities
// return numeric value only (unit: M⁻¹ s⁻¹, not printed)

Request: Can you share its kon? I mean this binder: 0228 (humanized Fab of 27F44, IgG4, hz0072VH S49A / hz0072VL) (Fab, V domains shown, IgG4-Cys, hz (humanized IgG4 Fab with the hinge cysteine kept)) VH: EVQLVESGGGLVQPGGSLRLSCAASGFTFSNYDMSWVRQATGKGLEWVAAFSSDGYTFYPGSVKGRFTISRENAKNSLYLQMNSLRAGDTAVYYCARHADYANYPVMDYWGQGTLVTVSS VL: DIQMTQSPSSLSASVGDRVTITCRASKSVSTSGYSYMHWYQQKPGKAPKLLIYLASNLESGVPSRFSGSGSGTDFTLTISSLQPEDFATYYCQHSRELPLTFGGGTKVEIKR
Response: 3.97e+06

Request: Data request, read-out kon, for 0124 (chimeric Fab of 28F26, human IgG4 constant domain, hinge Cys->Ser) (Fab, V domains shown, murine variable domains, human IgG4 constant domain (IgG4-Ser)) VH: EVKVVESGGGLVKPGGSLKLSCAASGFVFSSYDMSWVRQIPEKRLEWVAAISSGDYYTYYPDSVKGRFTISRDDARNTLYLQMSSLRSEDTALYYCARHRGGNYPQYAMDYWGQGTSVTVSS VL: DILLTQSPASFAVSLGQRATISCRASKSVSTSGYNYIHWYQQKPGQPPKLLIYLTSNLESGVPARFSGSGSGTDFTLNIHPVEEEDAATYYCQHSRELPFTFGSGTKLEIKR
Response: 752000

Request: What measured kon goes with 0130 (recombinant murine Fab of 45F36) (Fab, V domains shown, murine Fab; also called 00130) VH: EVQLVESGGGLVKPGGSLKLSCAASGFTFSSYAMSWVRQSPDKRLEWVAEISSGDTYTYYPDTVTGRFTISRDNAKKTLYLEMSGLRSEDTAMYYCARDREAYYGQQYVMDYWGQGTSVTVSS VL: DIVLTQSPASLAVSLGLSVTISCRASESIEYSGTSFLQWYQQKPGQPPRLLIYGSSTVESGVPARFSGSGSGTDFSLNIHPVEEDDSAMYFCQQSRRLPWTFGGGTKLEIKR ?
Response: 1.74e+06

Request: Which kon value belongs to 0143 (chimeric Fab of 44F434, human IgG4 constant domain, hinge Cys->Ser) (Fab, V domains shown, IgG4-Ser, chimeric) VH: EVQLVESGGDLVMPGGSLKLSCAASGFIFSSYGLSWIRQTPDKRLEWVATISGGDSYTYYPDSVKGRFTISSDNAKNTLYLQMTSLKSEDTAMYYCATQREIYYGTYYALDHWGQGTSVTVSS VL: DIQMTQTTSSLSASLGDRVTISCRASQDINNYLNWYQQKPDGTVKLLIYYTSRLQSGVPSRFSGSGSGTDYSLTISSLEQDDIATYFCQQGSPLPWTFGGGTKLEIKR ?
Response: 3.49e+06

Request: I'd like to know its kon. The binder in question is 0219 (humanized Fab of 27F44, IgG1, S49A HC) (Fab, V domains shown, Human IgG1 constant part) VH: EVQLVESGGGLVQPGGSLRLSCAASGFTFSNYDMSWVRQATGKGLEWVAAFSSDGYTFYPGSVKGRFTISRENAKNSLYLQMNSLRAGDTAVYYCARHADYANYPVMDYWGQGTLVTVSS VL: DIQMTQSPSSLSASVGDRVTITCRASKSVSTSGYSYMHWYQQKPGKAPKLLIYLASNLESGVPSRFSGSGSGTDFTLTISSLQPEDFATYYCQHSRELPLTFGGGTKVEIK
Response: 3.2e+06
